- TARGET_UNDER_TEST: RORγt (Homo sapiens, UniProt P51449)
- Sequence (P51449 1-497 isoform P51449-2): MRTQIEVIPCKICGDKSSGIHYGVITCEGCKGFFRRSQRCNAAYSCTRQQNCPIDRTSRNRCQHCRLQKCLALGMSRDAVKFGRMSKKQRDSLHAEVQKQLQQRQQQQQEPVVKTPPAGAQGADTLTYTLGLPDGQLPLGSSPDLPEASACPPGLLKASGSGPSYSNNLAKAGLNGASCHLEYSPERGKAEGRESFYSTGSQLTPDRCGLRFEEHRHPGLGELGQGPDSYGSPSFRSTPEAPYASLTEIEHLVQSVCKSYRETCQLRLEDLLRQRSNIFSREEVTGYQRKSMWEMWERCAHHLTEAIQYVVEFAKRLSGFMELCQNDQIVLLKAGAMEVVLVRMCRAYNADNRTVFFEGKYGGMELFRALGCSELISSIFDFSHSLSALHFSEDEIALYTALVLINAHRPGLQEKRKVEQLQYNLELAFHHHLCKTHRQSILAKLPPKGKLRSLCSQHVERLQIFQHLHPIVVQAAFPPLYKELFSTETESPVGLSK
- MEASUREMENT_NOTES: RORγt binding test using fluorescent-labeled cholesterol (TR-FRET)
- SETUP_CONDITIONS: read-out: Binding inhibitory rate of fluorescent-labeled cholesterol to RORγt at test compound 1 μM (%)
- Protocol: RORγt Binding Test Using Fluorescent-labeled Cholesterol The binding activity of the test compound to RORγt was measured by a time resolved fluorescence resonance energy transfer method (TR-FRET) utilizing histidine-tagged RORγt, fluorescent-labeled cholesterol (BODIPY-cholesterol, AVIVA), and terbium-labeled anti-histidine tag antibody (Invitrogen). First, a test compound diluted with an assay buffer (20 mM Tris-HCl (pH 7.5), 100 mM NaCl, 1 mM DTT, 0.1% BSA) was added to a 384 well plate by 3 μL. […]
Each entry below carries its recorded inhibition at 1 µM.
Expressed in %, but write only the number.

>>> result_value("CCOc1ccc2c(c1)CCN(C(=O)CCCC(=O)O)[C@H]2C(=O)Nc1cc(F)c(C(C)(C)COC)c(F)c1")
101
>>> result_value("CCOc1ccc2c(n1)CCN(C(=O)CCCC(=O)O)[C@H]2C(=O)Nc1ccc([Si](C)(C)C)c(F)c1")
102
>>> result_value("COc1ccc2c(c1)CCN(C(=O)CCCC(=O)O)[C@H]2C(=O)Nc1ccc([Si](C)(C)C)c(F)c1")
102

Continue with the next compound.
According to the records, this compound CC[Si](C)(C)c1c(F)cc(NC(=O)[C@H]2c3ccc(OC)cc3CCN2C(=O)CCCC(=O)O)cc1F displays inhibition at 1 µM of 103

* * *

- TARGET_UNDER_TEST: RORγt (Homo sapiens)
- Sequence (P51449 1-497 isoform P51449-2): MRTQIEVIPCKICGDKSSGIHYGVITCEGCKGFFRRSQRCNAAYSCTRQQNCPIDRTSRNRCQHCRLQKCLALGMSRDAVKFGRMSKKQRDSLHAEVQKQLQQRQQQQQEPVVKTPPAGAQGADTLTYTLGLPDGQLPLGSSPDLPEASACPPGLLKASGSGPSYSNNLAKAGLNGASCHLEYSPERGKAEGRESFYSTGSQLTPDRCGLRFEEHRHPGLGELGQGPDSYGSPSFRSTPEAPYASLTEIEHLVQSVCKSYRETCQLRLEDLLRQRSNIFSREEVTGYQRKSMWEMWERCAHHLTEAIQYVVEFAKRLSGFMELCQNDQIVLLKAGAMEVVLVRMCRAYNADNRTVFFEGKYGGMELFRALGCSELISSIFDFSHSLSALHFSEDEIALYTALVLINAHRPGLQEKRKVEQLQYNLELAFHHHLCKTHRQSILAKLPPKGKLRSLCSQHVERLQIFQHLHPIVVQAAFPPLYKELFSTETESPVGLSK
- MEASUREMENT_NOTES: RORγt binding test using fluorescent-labeled cholesterol (TR-FRET)
- SETUP_CONDITIONS: read-out: Binding inhibitory rate of fluorescent-labeled cholesterol to RORγt at test compound 1 μM (%)
Each entry below carries its recorded inhibition at 1 µM.
Expressed in %, but write only the number.

In the examples that follow, each entry is paired with its recorded inhibition at 1 µM.
>>> result_value("COc1ccc2c(c1)CCN(C(=O)CCc1cc(O)no1)[C@H]2C(=O)Nc1cc(F)c2c(c1)CCC2(C)C")
100
>>> result_value("COc1ccc2c(n1)CCN(C(=O)c1cc(O)no1)[C@H]2C(=O)Nc1cc(F)c2c(c1)CCC2(C)C")
103
>>> result_value("COc1ccc2c(c1)CCN(C(=O)Cc1cc(O)no1)[C@H]2C(=O)Nc1cc(F)c(C(C)(C)C)c(F)c1")
102
>>> result_value("CCOCC(C)(C)c1c(F)cc(NC(=O)[C@H]2c3ccc(OCC)cc3CCN2C(=O)CCCC(=O)O)cc1F")
100
>>> result_value("COc1ccc2c(c1)CCN(C(=O)Cc1nnc(C)o1)[C@H]2C(=O)Nc1cc(F)c(C(C)(C)C(=O)N2CCCC2)c(F)c1")
102
>>> result_value("COc1ccc2c(c1)CCN(C(=O)Cc1cc(O)no1)[C@H]2C(=O)Nc1ccc([Si](C)(C)C)c(F)c1")
102

According to the records, this compound COc1ccc2c(n1)CCN(C(=O)Cc1cc(O)no1)C2C(=O)Nc1ccc(C(C)(C)C)c(F)c1 (centres unmarked) displays inhibition at 1 µM of 102

According to the records, this compound COc1ccc2c(c1)OCCN(C(=O)Cc1cc(O)no1)[C@H]2C(=O)Nc1cc(F)c([Si](C)(C)C)c(F)c1 displays inhibition at 1 µM of 101

According to the records, this compound CCOc1ccc2c(n1)CCN(C(=O)c1cc(O)no1)[C@H]2C(=O)Nc1cc(F)c([Si](C)(C)C)c(F)c1 displays inhibition at 1 µM of 101

According to the records, this compound COc1ccc2c(c1)CCN(C(=O)[C@H]1CNC(=O)C1)[C@H]2C(=O)Nc1ccc(C(C)(C)C)c(F)c1 displays inhibition at 1 µM of 97.7

According to the records, this compound CCOc1ccc2c(n1)CCN(C(=O)Cc1cc(O)no1)[C@H]2C(=O)Nc1cc(F)c([Si](C)(C)C)c(F)c1 displays inhibition at 1 µM of 103

According to the records, this compound CCOc1ccc2c(c1)CCN(C(=O)Cc1cc(O)no1)[C@H]2C(=O)Nc1cc(F)c(C(C)(C)COCCOC)c(F)c1 displays inhibition at 1 µM of 101

According to the records, this compound CCOc1ccc2c(n1)CCN(C(=O)Cc1cc(O)no1)[C@H]2C(=O)Nc1cc(F)c2c(c1)CCC2(C)C displays inhibition at 1 µM of 101

According to the records, this compound COCc1ccc2c(c1)CCN(C(=O)CCCC(=O)O)[C@H]2C(=O)Nc1cc(F)c([Si](C)(C)C)c(F)c1 displays inhibition at 1 µM of 102

* * *

- TARGET_UNDER_TEST: UniProt P51449
- MEASUREMENT_NOTES: Jurkat reporter test (human IL-17 ROR response element luciferase, RORγt vector)
- Type: cell-based
- SETUP_CONDITIONS: Jurkat, read-out: Luminescence level inhibitory rate at test compound 3 μM (%)
VALUE_TYPE: inhibition at 3 µM (%)
Expressed in %, but write only the number.

>>> result_value("COc1ccc2c(c1)CCN(C(=O)c1ccc(=O)[nH]c1)C2C(=O)Nc1ccc([Si](C)(C)C)cc1 (stereo not shown)")
98.1

According to the records, this compound CC[Si](C)(C)c1c(F)cc(NC(=O)[C@H]2c3ccc(OC)nc3CCN2C(=O)c2cc(O)no2)cc1F displays inhibition at 3 µM of 103

According to the records, this compound CCOc1ccc2c(c1)CCN(C(=O)CCCC(=O)O)[C@H]2C(=O)Nc1ccc([Si](C)(C)C)c(F)c1 displays inhibition at 3 µM of 102

According to the records, this compound C[Si](C)(C)c1c(F)cc(NC(=O)[C@H]2c3ccc(OC(F)F)cc3CCN2C(=O)CCCC(=O)O)cc1F displays inhibition at 3 µM of 100

According to the records, this compound CCOc1ccc2c(n1)CCN(C(=O)Cc1cc(O)no1)[C@H]2C(=O)Nc1cc(F)c([Si](C)(C)C)c(F)c1 displays inhibition at 3 µM of 103

According to the records, this compound C[Si](C)(C)c1c(F)cc(NC(=O)[C@H]2c3ccc4c(c3CCN2C(=O)CCCC(=O)O)OCO4)cc1F displays inhibition at 3 µM of 102

According to the records, this compound COCc1ccc2c(c1)CCN(C(=O)c1cc(O)no1)[C@H]2C(=O)Nc1ccc([Si](C)(C)C)c(F)c1 displays inhibition at 3 µM of 102
